The reported measurements were obtained from patent US20250250357A1.

# tgt: T1, human MSLN-R2-his protein (human, UniProt Q13421 391-486)
# T1 construct: Region 2 of human mesothelin, made in HEK293E cells, His-tagged; also called human MSLN-R2 protein; hMSLN-R2-his; not shown: His tag
# assayDetails: ELISA on coated MSLN-R2; antibody 100 nM

binder: S009-F8-28.23 (antibody, human IgG1, kappa, V domains shown) VH: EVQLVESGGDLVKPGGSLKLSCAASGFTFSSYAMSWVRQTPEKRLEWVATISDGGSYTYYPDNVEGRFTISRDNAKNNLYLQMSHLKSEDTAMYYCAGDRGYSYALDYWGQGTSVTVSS VL: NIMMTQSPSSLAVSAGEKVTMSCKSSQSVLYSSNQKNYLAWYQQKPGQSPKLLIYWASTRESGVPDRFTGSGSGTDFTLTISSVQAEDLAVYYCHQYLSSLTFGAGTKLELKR
OD450: 0.05 OD450
--
binder: S009-F8-13.8 (antibody, human IgG1, kappa, V domains shown) VH: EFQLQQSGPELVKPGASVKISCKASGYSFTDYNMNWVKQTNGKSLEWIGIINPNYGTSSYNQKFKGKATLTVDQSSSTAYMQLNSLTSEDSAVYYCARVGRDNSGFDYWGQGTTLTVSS VL: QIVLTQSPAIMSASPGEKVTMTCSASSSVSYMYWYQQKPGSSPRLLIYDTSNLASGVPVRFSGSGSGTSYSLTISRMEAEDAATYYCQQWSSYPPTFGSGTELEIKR
OD450: 0.06 OD450
